# System: PC15
# Measurement notes: qHTS profiling for inhibitors of Plasmodium falciparum proliferation (AID 504749); further: nearly all actives have a fitted effect of over 60% in size
# Setup conditions: P. falciparum in erythrocytes, SYBR Green DNA, 72 h; series mostly up to 28.7 µM
Records with an inconclusive call do not appear. Calls of active or inactive are those of the source. The call rests on the fitted dose curve; in most records, active means well fitted inhibition curve with a large enough effect; inconclusive means small, poorly fitted or top-dose-only effect; inactive means flat fitted curve, though single readings scatter.
Response enum: active, inactive

| Compound | Class |
| --- | --- |
| CCCCc1ncc(/C=C(\Cc2cccs2)C(=O)O)n1Cc1ccc(C(=O)O)cc1 | inactive |

In: GET /call?item= CCOC(=O)[C@H](CCc1ccccc1)N[C@@H](C)C(=O)N1C(=O)N(C)C[C@H]1C(=O)O returns the recorded outcome of this test.
Out: inactive

In: GET /call?item= CN(C)CCCN1c2ccccc2Sc2ccc(Cl)cc21 returns the recorded outcome of this test.
Out: active

In: GET /call?item= CN1CCN(C2Cc3ccccc3Sc3ccc(Cl)cc32)CC1 (stereo not given) returns the recorded outcome of this test.
Out: inactive

====

# System: DIV17
# Measurement notes: qHTS profiling for inhibitors of Plasmodium falciparum proliferation (AID 504749); further: nearly all actives have a fitted effect of over 60% in size
# Setup conditions: P. falciparum in erythrocytes, SYBR Green DNA, 72 h; series mostly up to 28.7 µM
Results filed as inconclusive are left out. The source made the active and inactive calls. Calls follow the shape of the dose curve; as a rule, active = well fitted inhibition curve with a large enough effect; inconclusive = small, poorly fitted or top-dose-only effect; inactive = flat fitted curve, though single readings scatter.
Response enum: yes = active, no = inactive

| Molecule | Class |
| --- | --- |
| CC(O)COc1ccccc1 (configuration not stated) | no |
| OCCN1CCN(CCCN2c3ccccc3Sc3ccc(Cl)cc32)CC1 | yes |
| COc1cc(C(=O)N2CCOCC2)cc(OC)c1OC | no |
| Oc1ccc(C(O)CNCCCCCCNCC(O)c2ccc(O)c(O)c2)cc1O (configuration not stated) | yes |
| COc1ccc(S(=O)(=O)Nc2nnc(CC(C)C)s2)cc1 | no |

In: GET /call?item= COCCOC(=O)C1=C(C)NC(C)=C(C(=O)OC/C=C/c2ccccc2)C1c1cccc([N+](=O)[O-])c1 (configuration not stated) returns the recorded outcome of this test.
Out: yes

In: GET /call?item= CCCOC(=O)c1ccccc1 returns the recorded outcome of this test.
Out: no

In: GET /call?item= CC1(C)CO[C@@H](CC(=O)O)CN1 returns the recorded outcome of this test.
Out: no

In: GET /call?item= N[C@@H](CSCCCO)C(=O)O returns the recorded outcome of this test.
Out: no

In: GET /call?item= CCCCN(CCCC)CC(O)c1cc(Cl)cc2c1-c1ccc(Cl)cc1/C2=C/c1ccc(Cl)cc1 (configuration not stated) returns the recorded outcome of this test.
Out: yes

In: GET /call?item= O=C1NC(=O)[C@@]2(CCOc3ccc(F)cc32)N1 returns the recorded outcome of this test.
Out: no

In: GET /call?item= C[C@@H]1CN(c2c(F)c(F)c3c(=O)c(C(=O)O)cn(C4CC4)c3c2F)C[C@H](C)N1 returns the recorded outcome of this test.
Out: no

In: GET /call?item= Oc1cccc(O)c1 returns the recorded outcome of this test.
Out: no

In: GET /call?item= CC1=C(/C=C/C(C)=C/C=C/C(C)=C/C(=O)O)C(C)(C)CCC1 returns the recorded outcome of this test.
Out: no

In: GET /call?item= CC12CCC(CC1)C(C)(C)O2 returns the recorded outcome of this test.
Out: no

In: GET /call?item= O=C(O)c1ccccc1O returns the recorded outcome of this test.
Out: no

In: GET /call?item= Cc1cc(N)c2ccccc2[n+]1CCCCCCCCCC[n+]1c(C)cc(N)c2ccccc21 returns the recorded outcome of this test.
Out: yes

In: GET /call?item= CCOc1ccc2ccccc2c1C(=O)N[C@@H]1C(=O)N2[C@@H]1SC(C)(C)[C@@H]2C(=O)O returns the recorded outcome of this test.
Out: no

In: GET /call?item= NC(=O)NNc1ccccc1 returns the recorded outcome of this test.
Out: no

In: GET /call?item= C=Cc1c(C)c2cc3[nH]c(cc4nc(cc5nc(cc1[nH]2)C(C)=C5CCC(=O)O)C(CCC(=O)O)=C4C)c(C)c3C=C returns the recorded outcome of this test.
Out: no

In: GET /call?item= CC(=O)CCC(=O)O returns the recorded outcome of this test.
Out: no

In: GET /call?item= NCCNCCNCCN returns the recorded outcome of this test.
Out: no

In: GET /call?item= Nc1ccc(S(=O)(=O)Nc2ccccc2)cc1 returns the recorded outcome of this test.
Out: no

In: GET /call?item= COc1ccccc1O returns the recorded outcome of this test.
Out: no
